# Tested on: MDA-MB-231 (mammary gland adenocarcinoma)
# TEST_DESCRIPTION: In vitro cytotoxic activity (GI50), method (a), propidium iodide
# Format: cell-based
# RUN_CONDITIONS: Homo sapiens, MDA-MB-231; method (a), 96 hours; read-out: MDA-MB-231 (GI50 μM)
Could you please report measured GI50 for the items listed next?
Please state the value followed by its unit.

The following compounds have reported results that may help.
INSERT INTO results (compound, result) VALUES
  ('CC(C)=CCC/C(C)=C/CC/C(C)=C/CN1C(=O)c2cccc(O)c2N(Cc2ccccc2)c2c(O)cc(O)cc21', '6.32 µM'),
  ('CC(C)CCCC(C)CCCC(C)CCN1C(=O)c2cccc(O)c2Nc2c(O)cc(O)cc21 (stereo not drawn)', '0.59 µM');

Incoming: Check MDA-MB-231 (mammary gland adenocarcinoma) data and give GI50 for COc1cccc2c1Nc1c(OC)cc(O)cc1N(CC=C(C)CCC=C(C)CCC=C(C)C)C2=O .
Outgoing: 17.4 µM
